- Tested target: human IL-6 (human, UniProt P05231 30-212)
- Sequence (P05231 30-212 limits assumed): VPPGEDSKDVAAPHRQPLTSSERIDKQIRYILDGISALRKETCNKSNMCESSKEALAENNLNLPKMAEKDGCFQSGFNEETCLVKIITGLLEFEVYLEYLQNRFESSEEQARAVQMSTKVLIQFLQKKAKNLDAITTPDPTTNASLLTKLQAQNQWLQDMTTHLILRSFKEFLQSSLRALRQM
- Experiment description: SPR (Biacore), supernatant antibody on Protein A chip, IL-6 flowed, 37 C
For each entry below, report its kon value.
Numbers only, in M⁻¹ s⁻¹.

Recorded kon, per entry:
anti-IL-6 antibody, heavy chain T65K, G66D / light chain M32L, M50D, N52S, M88Q (antibody, human IgG1, V domains shown, Human IgG1) VH: EVQLVESGGGLVQPGGSLRLSCAASGFTFSPFAMSWVRQAPGKGLEWVAKISPGGSWTYYSDTVKDRFTFSLDTSKSTAYLQMNSLRAEDTAVYYCARQLWGYYALDIWGQGTLVTVSS VL: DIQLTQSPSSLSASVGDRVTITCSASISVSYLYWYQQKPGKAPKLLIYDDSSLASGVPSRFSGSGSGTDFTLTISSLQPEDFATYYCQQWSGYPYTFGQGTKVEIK: 1.63e+06
anti-IL-6 antibody, heavy chain S35Q, G66D / light chain M32L, M50D, N52S, M88Q (antibody, human IgG1, V domains shown, Human IgG1) VH: EVQLVESGGGLVQPGGSLRLSCAASGFTFSPFAMQWVRQAPGKGLEWVAKISPGGSWTYYSDTVTDRFTFSLDTSKSTAYLQMNSLRAEDTAVYYCARQLWGYYALDIWGQGTLVTVSS VL: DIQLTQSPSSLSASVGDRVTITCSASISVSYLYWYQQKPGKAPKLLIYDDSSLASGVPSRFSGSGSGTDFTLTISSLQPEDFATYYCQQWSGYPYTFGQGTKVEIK: 2.09e+06

Read the next record carefully.
Sample anti-IL-6 antibody, heavy chain T63D, G66D / light chain M32L, M50D, N52S, M88Q (antibody, human IgG1, V domains shown, Human IgG1) VH: EVQLVESGGGLVQPGGSLRLSCAASGFTFSPFAMSWVRQAPGKGLEWVAKISPGGSWTYYSDDVTDRFTFSLDTSKSTAYLQMNSLRAEDTAVYYCARQLWGYYALDIWGQGTLVTVSS VL: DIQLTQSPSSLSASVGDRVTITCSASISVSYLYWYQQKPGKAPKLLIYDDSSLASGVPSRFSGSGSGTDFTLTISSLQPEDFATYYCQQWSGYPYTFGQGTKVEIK — what was its kon?
1.66e+06
